systemName: human KDR on cells (human, UniProt P35968 20-1356)
Sequence (P35968 20-1356): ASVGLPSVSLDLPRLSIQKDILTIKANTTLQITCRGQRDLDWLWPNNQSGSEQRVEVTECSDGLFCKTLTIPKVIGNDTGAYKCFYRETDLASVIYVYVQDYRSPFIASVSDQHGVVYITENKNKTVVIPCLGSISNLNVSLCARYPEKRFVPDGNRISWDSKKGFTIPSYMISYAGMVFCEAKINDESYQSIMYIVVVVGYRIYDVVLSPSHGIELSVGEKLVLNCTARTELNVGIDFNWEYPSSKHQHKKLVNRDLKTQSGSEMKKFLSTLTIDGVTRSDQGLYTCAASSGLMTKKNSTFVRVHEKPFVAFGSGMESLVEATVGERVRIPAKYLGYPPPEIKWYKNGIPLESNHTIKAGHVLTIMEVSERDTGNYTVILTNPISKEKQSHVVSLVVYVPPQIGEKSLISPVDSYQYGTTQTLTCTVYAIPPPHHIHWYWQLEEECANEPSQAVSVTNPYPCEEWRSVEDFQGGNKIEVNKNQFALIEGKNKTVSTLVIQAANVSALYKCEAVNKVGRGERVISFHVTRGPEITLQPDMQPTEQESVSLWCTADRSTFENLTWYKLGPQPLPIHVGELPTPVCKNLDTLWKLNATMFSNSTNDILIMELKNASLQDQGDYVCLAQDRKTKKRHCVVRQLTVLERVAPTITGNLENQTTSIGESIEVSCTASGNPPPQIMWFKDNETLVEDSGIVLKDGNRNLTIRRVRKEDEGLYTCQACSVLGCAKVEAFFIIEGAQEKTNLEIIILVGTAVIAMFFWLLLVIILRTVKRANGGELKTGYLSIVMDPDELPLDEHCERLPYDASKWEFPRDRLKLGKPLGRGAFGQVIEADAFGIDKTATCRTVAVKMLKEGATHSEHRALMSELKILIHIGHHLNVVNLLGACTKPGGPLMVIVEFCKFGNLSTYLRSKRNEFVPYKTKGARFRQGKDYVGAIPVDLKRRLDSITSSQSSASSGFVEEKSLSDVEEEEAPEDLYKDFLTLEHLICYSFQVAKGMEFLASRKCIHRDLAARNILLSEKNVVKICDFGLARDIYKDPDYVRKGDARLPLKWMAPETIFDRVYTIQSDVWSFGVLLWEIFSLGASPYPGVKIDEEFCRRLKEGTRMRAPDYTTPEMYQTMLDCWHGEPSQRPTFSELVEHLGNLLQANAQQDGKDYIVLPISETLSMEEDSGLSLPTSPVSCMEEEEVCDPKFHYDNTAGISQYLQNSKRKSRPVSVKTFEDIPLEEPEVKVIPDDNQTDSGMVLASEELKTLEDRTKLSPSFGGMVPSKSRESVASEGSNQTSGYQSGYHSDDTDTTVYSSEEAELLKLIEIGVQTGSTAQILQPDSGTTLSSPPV
assayRemarks: cell-based or functional assay
quantity: % Inhibition (N = 1) of VEGF-C-mediated KDR activity, antibody 100 nM (%)

- 27A3 (antibody, V domains shown) VH: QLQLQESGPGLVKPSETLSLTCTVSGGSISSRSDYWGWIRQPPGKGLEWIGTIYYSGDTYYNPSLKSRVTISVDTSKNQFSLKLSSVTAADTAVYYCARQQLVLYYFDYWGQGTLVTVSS VL: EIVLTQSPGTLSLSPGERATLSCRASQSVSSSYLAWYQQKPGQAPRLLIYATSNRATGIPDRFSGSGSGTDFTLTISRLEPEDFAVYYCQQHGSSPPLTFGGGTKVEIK: 73
- 33C3 (antibody, V domains shown, Purified fully human monoclonal antibody from XenoMouse hybridoma (IgG2 or IgG4 strains); also called MAb 33C3) VH: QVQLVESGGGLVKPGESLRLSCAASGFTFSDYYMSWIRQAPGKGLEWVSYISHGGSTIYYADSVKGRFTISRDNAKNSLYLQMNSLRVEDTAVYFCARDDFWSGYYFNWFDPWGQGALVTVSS VL: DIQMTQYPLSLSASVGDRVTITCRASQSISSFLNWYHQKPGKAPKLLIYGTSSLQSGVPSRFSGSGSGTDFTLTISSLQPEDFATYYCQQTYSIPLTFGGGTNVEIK: 84
- 22B8 (antibody, V domains shown) VH: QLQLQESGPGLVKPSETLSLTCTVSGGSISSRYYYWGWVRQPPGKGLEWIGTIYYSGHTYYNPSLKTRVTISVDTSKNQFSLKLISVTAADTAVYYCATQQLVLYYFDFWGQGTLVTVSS VL: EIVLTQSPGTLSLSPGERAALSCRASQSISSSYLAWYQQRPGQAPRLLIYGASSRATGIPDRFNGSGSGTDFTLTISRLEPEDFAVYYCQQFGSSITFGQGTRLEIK: 71
- 21H6 (antibody, V domains shown) VH: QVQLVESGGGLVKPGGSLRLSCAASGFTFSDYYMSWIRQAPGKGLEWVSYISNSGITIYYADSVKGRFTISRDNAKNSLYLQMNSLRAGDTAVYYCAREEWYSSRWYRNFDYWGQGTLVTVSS VL: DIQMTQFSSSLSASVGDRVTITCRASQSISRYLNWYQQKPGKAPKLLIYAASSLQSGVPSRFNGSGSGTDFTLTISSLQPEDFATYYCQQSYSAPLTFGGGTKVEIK: 93

FYI, the data here is from patent US20100260765A1.
